Where do these numbers come from? They come from patent US8071568B2.

- Tested on: Hepatitis C Virus RNA in cultured hepatoma (HuH-7) cells containing a subgenomic HCV Replicon
- assay_info: Assay for inhibition of HCV RNA replication (replicon assay, in situ ribonuclease protection SPA)
- Assay type: cell-based
- assay_conditions: Hepatitis C virus, Huh-7, read-out: Replicon Assay EC50, second eluting diastereomer; HuH-7 subgenomic HCV replicon

compound: CC(C)C(=O)O[C@@H]1CCN(P(=O)(OC[C@H]2O[C@@H](n3ccc(N)nc3=O)[C@](C)(O)[C@@H]2O)Oc2ccccc2)C1 (single isomer, unassigned)
censoring_operator: >
EC50 [µM]: 5

compound: C[C@@]1(O)[C@H](O)[C@@H](COP(=O)(NCCOC(=O)C2CCCCCC2)Oc2ccccc2)O[C@H]1n1ccc(N)nc1=O (single isomer, unassigned)
censoring_operator: =
EC50 [µM]: 1.2

compound: CCC(CC)C(=O)OCCNP(=O)(OC[C@H]1O[C@@H](n2ccc(N)nc2=O)[C@](C)(O)[C@@H]1O)Oc1ccccc1 (single isomer, unassigned)
censoring_operator: =
EC50 [µM]: 0.6

compound: C[C@@]1(O)[C@H](O)[C@@H](COP(=O)(NCCOC(=O)c2ccccc2)Oc2ccccc2)O[C@H]1n1ccc(N)nc1=O (single isomer, unassigned)
censoring_operator: =
EC50 [µM]: 5

###

- Tested on: Hepatitis C Virus RNA in cultured hepatoma (HuH-7) cells containing a subgenomic HCV Replicon
- assay_info: Assay for inhibition of HCV RNA replication (replicon assay, in situ ribonuclease protection SPA)
- Format: cell-based
- assay_conditions: first eluting diastereomer; HuH-7 subgenomic HCV replicon; read-out: Replicon Assay EC50
experimental_readout: EC50

compound: CC1(C)O[C@@H]2[C@@H](COP(=O)(N[C@H](COC(=O)C(C)(C)C)Cc3ccccc3)Oc3ccccc3)O[C@@H](n3ccc(N)nc3=O)[C@]2(C)O1 (stereo partly shown)
data_value: > 5 µM
